Hello, the source for this data is paper PMC5540273, in case you need it.

Tested on: AMPK-alpha1;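 note: KINOMEscan kinase panel screen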
Construct: gene PRKAA1
Details: concentration: 1 μM, replicates: in singlicate; n = 1
endpointLabel: %Inh
Include the unit after the number when you answer.

O=C(Nc1c(F)cccc1F)c1cc(C(=O)c2ccccc2F)c[nH]1 [GSK1326180]
0%

Query string: Reported %Inh for AMPK-alpha1, given O=C(Nc1n[nH]c2nc(-c3ccccc3O)ccc12)C1CC1 [SB-711880] ?
Result string: 90%

Query string: Give recorded %Inh with AMPK-alpha1 for the following compound: Nc1ncc(-c2cn[nH]c2)c2scc(-c3ccc4c(c3)CCN4C(=O)Cc3ccccc3)c12 [GSK2593067]
Result string: 11%

Query string: For the record Nc1ncnc2scc(-c3ccc(NC(=O)Cc4cc(F)ccc4F)cc3)c12.O=C(O)C(F)(F)F [SB-731254-M] , what value of %Inh is listed for AMPK-alpha1?
Result string: 18%
